biological target: Human FXIa (Homo sapiens, UniProt P03951)
Sequence (P03951 388-625 limits assumed): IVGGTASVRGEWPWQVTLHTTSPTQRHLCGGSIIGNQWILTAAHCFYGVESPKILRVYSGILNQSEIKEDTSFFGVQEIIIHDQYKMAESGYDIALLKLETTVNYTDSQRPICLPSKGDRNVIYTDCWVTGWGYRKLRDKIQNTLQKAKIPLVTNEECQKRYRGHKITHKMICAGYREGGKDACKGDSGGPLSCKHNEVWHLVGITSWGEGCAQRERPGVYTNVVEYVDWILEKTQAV
Sequence (P03951 19-387 partner limits assumed): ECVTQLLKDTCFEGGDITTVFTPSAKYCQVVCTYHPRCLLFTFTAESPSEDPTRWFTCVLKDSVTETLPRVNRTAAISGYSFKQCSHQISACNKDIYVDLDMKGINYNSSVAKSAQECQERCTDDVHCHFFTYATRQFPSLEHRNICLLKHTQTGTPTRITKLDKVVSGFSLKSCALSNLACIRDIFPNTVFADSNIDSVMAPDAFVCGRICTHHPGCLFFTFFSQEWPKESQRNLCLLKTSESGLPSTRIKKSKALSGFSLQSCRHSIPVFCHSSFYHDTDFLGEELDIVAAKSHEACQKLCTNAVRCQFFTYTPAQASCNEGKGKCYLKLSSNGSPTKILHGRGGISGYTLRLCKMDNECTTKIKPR
pIC50: −log10 of the molar value.
observation_type: pIC50

line_notation: Cc1cc(C(=O)NCc2ccc3c(N)nccc3c2)sc1CN1CCCN(c2ccncc2)CC1
target: Human FXIa (Homo sapiens, UniProt P03951)
value_measured: < 4.40

line_notation: Nc1nccc2cc(CNC(=O)c3cc(C4CC4)nn3CC3CCN(c4ccncc4)CC3)ccc12
target: Human FXIa (Homo sapiens, UniProt P03951)
value_measured: 4.50

line_notation: CCN1CCC(Cn2c(C(=O)NCc3ccc4c(N)nccc4c3)nc3ccccc32)CC1
target: Human FXIa (Homo sapiens, UniProt P03951)
value_measured: < 4.40

line_notation: CNS(=O)(=O)c1sc(C(=O)NCc2ccc3c(N)nccc3c2)cc1Br
target: Human FXIa (Homo sapiens, UniProt P03951)
value_measured: < 4.40

line_notation: Nc1nccc2cc(CNC(=O)c3cc(Cl)c(CN4CC[C@@H](Nc5cccnc5)C4)s3)ccc12
target: Human FXIa (Homo sapiens, UniProt P03951)
value_measured: 4.42

line_notation: Nc1nccc2cc(CNC(=O)c3cc(Cl)c(CNCc4ccc(N5CCCC5=O)cc4)s3)ccc12
target: Human FXIa (Homo sapiens, UniProt P03951)
value_measured: < 4.40

line_notation: CN1CCC(CCn2nc(C(=O)NCc3ccc4c(N)nccc4c3)cc2Cl)CC1
target: Human FXIa (Homo sapiens, UniProt P03951)
value_measured: < 4.40

line_notation: Nc1nccc2cc(CNC(=O)c3cc(Cl)nn3CC3CCNCC3)ccc12
target: Human FXIa (Homo sapiens, UniProt P03951)
value_measured: < 4.40

----------
Overview of recorded IC50 for various compounds
biological target: Human Factor XIIa (Homo sapiens); construct: Human Factor XIIa (Enzyme Research Laboratories) was incubated; purchased Enzyme Research Laboratories; assay: Determination of FXIIa inhibitory activity in vitro (fluorogenic substrate H-DPro-Phe-Arg-AFC); assay type: biochemical; conditions: 25° C., residual enzyme activity (initial rate)

compound: COc1ccc(CNCc2sc(C(=O)NCc3ccc4c(N)nccc4c3)cc2Cl)cc1 [Example 2.05]
IC50: 10 to 40 µM
//
compound: CN1CCC(CCn2nccc2C(=O)NCc2ccc3c(N)nccc3c2)CC1 [Example 35.07]
IC50: 1 to 3 µM
//
compound: CN1CCC(CNc2cnn(C)c2C(=O)NCc2ccc3c(N)nccc3c2)CC1 [Example 26.01]
IC50: 3 to 10 µM
//
compound: Nc1nccc2cc(CNC(=O)c3cc4cc(F)ccc4s3)ccc12 [Example 25.205]
IC50: 3 to 10 µM
//
compound: CN1CCC(CNc2cccc3sc(C(=O)NCc4ccc5c(N)nccc5c4)cc23)CC1 [Example 25.209]
IC50: 3 to 10 µM
//
compound: CN(C)CCCCOCc1sc(C(=O)NCc2ccc3c(N)nccc3c2)cc1Cl [Example 7.26]
IC50: 1 to 3 µM
//
compound: Nc1nccc2cc(CNC(=O)c3cc(Cl)c(CN4CCOCC4)s3)ccc12 [Example 5.03]
IC50: 10 to 40 µM
//
compound: CN1CCN(c2ccccc2CNCc2sc(C(=O)NCc3ccc4c(N)nccc4c3)cc2Cl)CC1 [Example 2.39]
IC50: 10 to 40 µM

----------
target: Human Factor XIIa (Homo sapiens, UniProt P00748); construct: Human Factor XIIa (Enzyme Research Laboratories) was incubated; purchased Enzyme Research Laboratories; assay: Determination of FXIIa inhibitory activity in vitro (fluorogenic substrate H-DPro-Phe-Arg-AFC); type: biochemical; details: 25° C., residual enzyme activity (initial rate)
Sequence (P00748 373-615 limits assumed): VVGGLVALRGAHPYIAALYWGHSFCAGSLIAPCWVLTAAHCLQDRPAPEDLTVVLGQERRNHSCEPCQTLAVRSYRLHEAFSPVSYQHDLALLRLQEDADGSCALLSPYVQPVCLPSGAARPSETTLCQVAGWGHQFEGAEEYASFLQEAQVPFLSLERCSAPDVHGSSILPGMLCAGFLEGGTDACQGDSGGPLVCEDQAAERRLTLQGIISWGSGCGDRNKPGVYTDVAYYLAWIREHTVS
Sequence (P00748 20-372 partner limits assumed): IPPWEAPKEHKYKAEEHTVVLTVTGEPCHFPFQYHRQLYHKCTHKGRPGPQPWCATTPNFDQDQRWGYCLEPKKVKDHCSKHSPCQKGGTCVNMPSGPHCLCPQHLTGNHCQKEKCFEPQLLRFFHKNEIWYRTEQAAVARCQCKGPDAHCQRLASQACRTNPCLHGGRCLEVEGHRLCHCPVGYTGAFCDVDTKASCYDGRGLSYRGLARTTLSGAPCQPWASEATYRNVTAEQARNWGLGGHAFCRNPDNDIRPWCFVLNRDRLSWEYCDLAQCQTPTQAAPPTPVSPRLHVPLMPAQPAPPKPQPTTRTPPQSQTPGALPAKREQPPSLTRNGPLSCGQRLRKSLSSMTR
pIC50: −log10 of the molar value.
The compounds listed here are annotated with their pIC50.

line_notation: Cn1cc(CCCOCc2sc(C(=O)NCc3ccc4c(N)nccc4c3)cc2Cl)cn1
pIC50: 5.00 to 5.52
--
line_notation: Nc1nccc2cc(CNC(=O)c3cc(Cl)c(COCC4CCN(Cc5ccccc5)CC4)s3)ccc12
pIC50: 4.40 to 5.00
--
line_notation: Nc1nccc2cc(CNC(=O)c3cc(Cl)c(COCCCn4cccn4)s3)ccc12
pIC50: 4.40 to 5.00
--
line_notation: Nc1nccc2cc(CNC(=O)c3cc4cccc(Cl)c4s3)ccc12
pIC50: 4.40 to 5.00
--
line_notation: Nc1nccc2cc(CNC(=O)c3cc(Cl)c(CNC4CCOCC4)s3)ccc12
pIC50: 4.40 to 5.00
--
line_notation: CN1CCC(Nc2cccc3sc(C(=O)NCc4ccc5c(N)nccc5c4)cc23)CC1
pIC50: 5.00 to 5.52
--
line_notation: Cc1sc(C(=O)NCc2ccc3c(N)nccc3c2)cc1Cl
pIC50: 5.00 to 5.52
--
line_notation: Nc1nccc2cc(CNC(=O)c3cc(Cl)c(CN4CC[C@@H](Nc5cccnc5)C4)s3)ccc12
pIC50: 4.40 to 5.00
--
line_notation: Cc1sc(C(=O)NCc2ccc3c(N)nccc3c2F)cc1Cl
pIC50: 4.40 to 5.00
--
line_notation: Nc1nccc2cc(CNC(=O)c3ccc(Cl)s3)ccc12
pIC50: 4.40 to 5.00
--
line_notation: Cc1cc(OCC2CCN(C)CC2)c(C(=O)NCc2ccc3c(N)nccc3c2)s1
pIC50: 4.40 to 5.00
--
line_notation: CCc1cc(C(=O)NCc2ccc3c(N)nccc3c2)sc1CN1CCN(c2ccncc2)CC1
pIC50: 5.00 to 5.52
--
line_notation: CN1CCC(CCCn2nccc2C(=O)NCc2ccc3c(N)nccc3c2)CC1
pIC50: 5.52 to 6.00
--
line_notation: CN(C)CCCNCc1sc(C(=O)NCc2ccc3c(N)nccc3c2)cc1Cl
pIC50: 5.00 to 5.52
--
line_notation: Nc1nccc2cc(CNC(=O)c3cc(Cl)c(Cc4ccccc4O)s3)ccc12
pIC50: 4.40 to 5.00
--
line_notation: Nc1nccc2cc(CNC(=O)c3cc(Cl)c(CNCCn4cncn4)s3)ccc12
pIC50: 5.00 to 5.52
--
line_notation: CC(=O)N1CCC(CCn2ccc(C(=O)NCc3ccc4c(N)nccc4c3)n2)CC1
pIC50: 4.40 to 5.00
--
line_notation: Nc1nccc2cc(CNC(=O)c3cc(Cl)c(CNCC4CCN(Cc5ccccc5)CC4)s3)ccc12
pIC50: 5.00 to 5.52
--
line_notation: CN1CCC(CCn2nc(C(=O)NCc3ccc4c(N)nccc4c3)cc2Cl)CC1
pIC50: > 6.00
--
line_notation: CN1CCC(CNc2ncsc2C(=O)NCc2ccc3c(N)nccc3c2)CC1
pIC50: 5.52 to 6.00
--
line_notation: CCN1CCC(Cn2c(C(=O)NCc3ccc4c(N)nccc4c3)nc3ccccc32)CC1
pIC50: 5.52 to 6.00
--
line_notation: Cc1sc(C(=O)NCc2ccc3c(N)nccc3c2)c(NCC2CCN(C)CC2)c1C
pIC50: 5.00 to 5.52
--
line_notation: CN1CCC(Cn2c(C(=O)NCc3ccc4c(N)nccc4c3)cc3ccccc32)CC1
pIC50: 5.00 to 5.52
--
line_notation: Cc1cc(C(=O)NCc2ccc3c(N)nccc3c2)n(CC2CCN(c3ccncc3)CC2)n1
pIC50: 4.40 to 5.00
--
line_notation: Nc1nccc2cc(CNC(=O)c3cc(Cl)c(CNCC(=O)NC4CCCC4)s3)ccc12
pIC50: 4.40 to 5.00
--
line_notation: CC(=O)Nc1cccc(NCc2sc(C(=O)NCc3ccc4c(N)nccc4c3)cc2Cl)c1
pIC50: 4.40 to 5.00
